molecular target: Bile acid receptor (Homo sapiens); experiment: ATG_IR1_CIS: Attagene CIS-FACTORIAL HepG2 Assay for human Nuclear Receptor Subfamily 1 Group H Member 4 (NR1H4), IR1 submotif (AID 2282946); conditions: IR1 reporter transcription, actives raise or lower the signal
Calls of active or inactive are those of the source. Rule for the calls: active = hit-call score of the fitted dose curve at least 0.9, where 1 is the maximum; inactive = score below 0.9.
Labels: true = active, false = inactive

# compound, systemUnderTest, category
records = [
    ("c1ccc2sc(SNC3CCCCC3)nc2c1", "Bile acid receptor (Homo sapiens)", "false"),
    ("CC1(C)[C@H](C(=O)O[C@H](C#N)c2cccc(Oc3ccccc3)c2)[C@@H]1/C=C(\\Cl)C(F)(F)F", "Bile acid receptor (Homo sapiens)", "false"),
    ("C=CCOC(N)=O", "Bile acid receptor (Homo sapiens)", "false"),
    ("O=S(=O)(F)C(F)(F)C(F)(F)C(F)(F)C(F)(F)F", "Bile acid receptor (Homo sapiens)", "false"),
    ("CCN(N=O)C(N)=O", "Bile acid receptor (Homo sapiens)", "false"),
    ("Cc1cc(Cl)ccc1OCCCC(=O)O", "Bile acid receptor (Homo sapiens)", "false"),
    ("CC(C)=CC1C(C(=O)OCc2cccc(Oc3ccccc3)c2)C1(C)C (configuration not stated)", "Bile acid receptor (Homo sapiens)", "false"),
    ("c1ccc(-c2cccc(-c3ccccc3)c2)cc1", "Bile acid receptor (Homo sapiens)", "false"),
    ("Cl[C@H]1OCCO[C@@H]1Cl", "Bile acid receptor (Homo sapiens)", "false"),
    ("CN(C)c1ccc(N=O)cc1", "Bile acid receptor (Homo sapiens)", "true"),
    ("CN(C)[C@@H]1C(=O)C(C(N)=O)=C(O)[C@@]2(O)C(=O)C3=C(O)c4c(O)ccc(Cl)c4[C@@](C)(O)[C@H]3C[C@@H]12", "Bile acid receptor (Homo sapiens)", "false"),
    ("CCCCOC(C)=O", "Bile acid receptor (Homo sapiens)", "false"),
    ("Cc1cc(C(F)(C(F)(F)F)C(F)(F)F)ccc1NC(=O)c1cccc(I)c1C(=O)NC(C)(C)CS(C)(=O)=O", "Bile acid receptor (Homo sapiens)", "false"),
    ("CCOP(=S)(OCC)O/N=C(\\C#N)c1ccccc1", "Bile acid receptor (Homo sapiens)", "false"),
    ("[Cl][Sn]([c]1ccccc1)([c]1ccccc1)[c]1ccccc1", "Bile acid receptor (Homo sapiens)", "false"),
    ("COCC(=O)N(c1c(C)cccc1C)[C@H](C)C(=O)OC", "Bile acid receptor (Homo sapiens)", "false"),
    ("Cc1ccc(CCl)cc1", "Bile acid receptor (Homo sapiens)", "false"),
    ("CCCCCCCCCCCCN(C)C", "Bile acid receptor (Homo sapiens)", "true"),
    ("Nc1ncn[nH]1", "Bile acid receptor (Homo sapiens)", "false"),
    ("CCC[CH2][Sn]([CH2]CCC)([CH2]CCC)[CH2]CCC", "Bile acid receptor (Homo sapiens)", "true"),
    ("CN(N=O)c1ccc([N+](=O)[O-])cc1", "Bile acid receptor (Homo sapiens)", "false"),
    ("O=c1[nH]c2ccccc2n1C1CCN(CCCC(c2ccc(F)cc2)c2ccc(F)cc2)CC1", "Bile acid receptor (Homo sapiens)", "false"),
    ("C[As+](C)(C)CC(=O)[O-]", "Bile acid receptor (Homo sapiens)", "false"),
    ("Clc1cc(C(Cl)(Cl)Cl)cnc1Cl", "Bile acid receptor (Homo sapiens)", "false"),
    ("BrCc1ccc(Br)cc1", "Bile acid receptor (Homo sapiens)", "false"),
    ("Cc1ccc(OP(=O)(Oc2ccc(C)cc2C)Oc2ccc(C)cc2C)c(C)c1", "Bile acid receptor (Homo sapiens)", "false"),
    ("C[C@@H]1O[C@@H](O[C@H]2C[C@@H](O)[C@]3(CO)[C@H]4[C@H](O)C[C@]5(C)[C@@H](C6=CC(=O)OC6)CC[C@]5(O)[C@@H]4CC[C@]3(O)C2)[C@H](O)[C@H](O)[C@H]1O", "Bile acid receptor (Homo sapiens)", "false"),
]
